I'd be grateful if you could share measured Average quizalofop-P activity for these entries.
- experiment_summary: high-throughput enzyme assay with crude bacterial extract
- Type: biochemical
- test_context: relative to wild-type RdpA, average of replicates
Just the number, please, no unit attached.

Problem: Recorded Average quizalofop-P activity for MON-HT52: engineered oxygenase protein, amino acid sequence SEQ ID NO:4 (protein) MHAALSPLSQRFERIAVQPLTGVLGAEITGVDLREPLDDSTWNEILDAFHTYQVIYFPGQAITNEQQIAFSRRFGPVDPVPLLKSIEGYPEVQMIRREANESGRVIGDDWHTDSTFLDAPPAAVVMRAIDVPEHGGDTGFLSMYTAYDALSDGLKKLISGLNVVHSATRVFGSLYQAQNRRFSNTSVKVMDVDAGDRETVHPLVVTHPGSGRKGLYVNQVYCQRIEGMSEKESEPLLSFLFAHATKPEFTCRVRWKKDQVLVWDNLCTMHYAINDYHGQTRILHRTTVGGVRPAR , please?
Solution: 78.79

Problem: Recorded Average quizalofop-P activity for MON-HT54: engineered oxygenase protein, amino acid sequence SEQ ID NO:9 (protein) MHAALSPLSQRFERIAVQPLTGVLGAEITGVDLREPLDDSTWNEILDAFHTYQVIYFPGQAITNEQHIAFSRRFGPVDPVPLLKSIEGYPEVQMIRREANESGRVLGDDWHTDSTFLDAPPAAVVMRAIDVPEHGGDTGFLSMYTAYDALSDGLKKLISGLNVVHSATRVFGSLYQAQNRRFSNTSVKVMDVADGDRETVHPLVVTHPGSGRKGLYVNQVYCQRIEGMSEKESEPLLSFLFAHATKPEFTCRVRWKKDQVVVWDNLCTMHYAINDYHGQTRILHRTTVGGVRPAR , please?
Solution: 137.39

Problem: Recorded Average quizalofop-P activity for MON-HT53: engineered oxygenase protein, amino acid sequence SEQ ID NO:7 (protein) MHAALSPLSQRFERIAVQPLTGVLGAEITGVDLREPLSDSTWNEILDAFHTYQVIYFPGQAITNEQHIAFSRRFGPVDPVPLLKSIEGYPEVQMIRREANESGRVIGDDWHSDSTFLDAPPAAVVMRAIDVPEHGGDTGFLSMYTAYDALSDGLKKLISGLNVVHSATRVFGSLYQAQNRRFSNTSVKVMDVDAGDRETVHPLVVTHPGSGRKGLYVNQVYCQRIEGMSEKESEPLLSFLFAHATKPEFTCRVRWKKDQVLVWDNLCTMHYAINDYHGQTRILHRTTVGGVRPAR , please?
Solution: 105.60

Problem: Recorded Average quizalofop-P activity for MON-HT51: engineered oxygenase protein, amino acid sequence SEQ ID NO:1 (protein) MHAALSPLSQRFERIAVQPLTGVLGAEITGVDLREPLSDSTWNEILDAFHTYQVIYFPGQAITNEQHIAFSRRFGPVDPVPLLKSIEGYPEVQMIRREANESGRVIGDDWHTDSSFLDAPPAAVVMRAIDVPEHGGDTGFLSMYTAYDALSDGLKKLISGLNVVHSATRVFGSLYQAQNRRFSNTSVKVMDVADGDRETVHPLVVTHPGSGRKGLYVNQVYCQRIEGMSEKESEPLLSFLFAHATKPEFTCRVRWKKDQVLVWDNLCTMHYAINDYHGQTRILHRTTVGGVRPAR , please?
Solution: 117.35

Problem: Recorded Average quizalofop-P activity for MON-HT55: engineered oxygenase protein, amino acid sequence SEQ ID NO:11 (protein) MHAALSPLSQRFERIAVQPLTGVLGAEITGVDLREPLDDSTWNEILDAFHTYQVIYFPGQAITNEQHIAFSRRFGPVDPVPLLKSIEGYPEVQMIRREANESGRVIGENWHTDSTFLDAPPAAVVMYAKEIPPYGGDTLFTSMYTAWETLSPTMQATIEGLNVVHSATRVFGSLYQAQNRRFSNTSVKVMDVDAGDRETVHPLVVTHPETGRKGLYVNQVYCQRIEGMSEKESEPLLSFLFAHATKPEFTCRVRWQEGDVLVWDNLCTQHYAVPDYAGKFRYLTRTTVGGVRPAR , please?
Solution: 109.13

Entry source: patent US12723255B2
